target: Torsin-1A (Homo sapiens) (UniProt O14656); assay: torsin A binders from cell lysate, primary screen, small-molecule microarray, wild-type, 635/667 nm (AID 1149); settings: COS7 hTOR1A-WT lysate, 635 nm fluorescence, higher = more signal
Sequence (O14656 whole entry, looked up): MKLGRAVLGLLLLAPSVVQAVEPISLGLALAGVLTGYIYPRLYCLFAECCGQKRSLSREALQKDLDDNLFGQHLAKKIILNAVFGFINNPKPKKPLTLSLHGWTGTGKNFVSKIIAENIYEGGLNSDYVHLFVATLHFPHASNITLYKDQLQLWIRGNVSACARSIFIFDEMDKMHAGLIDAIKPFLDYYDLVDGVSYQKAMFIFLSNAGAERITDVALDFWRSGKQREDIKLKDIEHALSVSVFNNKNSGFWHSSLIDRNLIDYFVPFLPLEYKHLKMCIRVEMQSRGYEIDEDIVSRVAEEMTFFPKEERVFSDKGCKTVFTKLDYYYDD
Item-by-item account of composite z-score
Answer as a number with no unit attached.

Here's what some known entries look like.
O=C1O[C@@H](c2ccccc2)[C@@H](c2ccccc2)N2[C@@H](c3ccccc3OCCO)[C@]3(C(=O)Nc4ccc(C#CC5=CCCCC5)cc43)[C@@H](C(=O)Nc3nc4ccccc4s3)[C@H]12    -0.271
COC(=O)[C@@]1(Cc2ccccc2)[C@H]2c3cc(C(=O)N(C)C)n(CCSCCO)c3C[C@H]2CN1C(=O)c1ccccc1    -0.0487
Cc1ccc(S[C@]2(C(=O)NCCN3CCOCC3)CC(=O)N(Cc3ccccc3Cl)[C@@H]2c2ccc(CO)cc2)cc1    -2.16
CCOC1=C2C(CN(S(=O)(=O)c3ccc(C)cc3)C2c2ccc(C)cc2)C2C(=O)N(c3ccccc3)C(=O)C2C1 (configuration not stated)    -0.196
O=C1OCCC/C=C\[C@H]2OC34C=CCN(Cn5nnc6ccccc65)C(=O)[C@H]3N(CCO)C(=O)[C@@H]4C12 (some centres not stated)    -2.75
O=C1OCC=C[C@H]2OC34C=CCN(c5ccc6ccccc6c5)C(=O)[C@H]3N(CCCCCCO)C(=O)[C@@H]4[C@@H]12 (some centres not stated)    1.62

For the next question, use this compound.
Memo: COC(=O)[C@@]1(Cc2ccc(F)cc2)[C@@H]2[C@@H](CC(=O)[C@H]2CC(=O)C(=O)N(C)C)CN1C(=O)c1ccccc1 , reported composite z-score: 0.447

----------
experiment: basal MM1S mitochondrial membrane potential changes, profiling panel, cell-based, JC-1 fluorescence, 24 h, 100 nL compound (AID 1170); conditions: higher = more signal; further: test concentration not given here
# key: entry, value: z-score
Lab note: record just the number, no unit beside it.

Before answering, review these 3 worked examples.
CCCCC(=C=CC[C@@H](O)c1ccccc1OCCO)CCO    0.502
CC(=O)NCCCC[C@@H]1NC(=O)[C@@H]2C[C@H](C(=O)NCCCCN(C)C)[C@H](c3cccc(OCCO)c3)N2C1=O    -0.436
CCOC(=O)C1=CCC(c2ccccc2)N(S(=O)(=O)CC[Si](C)(C)C)C1 (centres undefined)    -1.66

From here, focus on the item given below.
// field: z-score; key: CN(C)C(=O)[C@]1(Cc2ccccc2CN=[N+]=[N-])N=C(c2ccc(OCCCO)cc2)O[C@@H]1c1ccccc1CN=[N+]=[N-] ; value = -0.0198

----------
experiment: inhibitors of hydroxyurea-induced Chk1 phosphorylation, primary screen, imaging, HeLa, phospho-Chk1 nuclear intensity (AID 1187); conditions: hydroxyurea-induced phospho-Chk1 immunofluorescence imaging, higher = more signal; further: test concentration not given here
Would you mind labelling by z-score? At or over -0.2 is T, under is F.

Problem: Please check the record COc1ccc([C@H]2C[C@H]3C(Br)=C[C@@H]2C(=O)[C@]32CO2)cc1 and state if its z-score is at or above -0.2.
Result: F

Problem: Check if z-score >= -0.2 (inclusive). Item: O=C1C2C=CC(C(O)C3CCCCC3)N(Nc3ccc([N+](=O)[O-])cc3)C2C(=O)N1c1ccccc1 (centres undefined)
Result: T

Problem: Textbook exercise: given the entry C=CCOC(=O)[C@H]1[C@@H]2C(=O)O[C@@H](c3ccccc3)[C@@H](c3ccccc3)N2[C@@H](c2ccc(OCCOC(=O)[C@H]3C[C@H]4C(=O)N5CCC[C@H]5C(=O)N4[C@H]3c3ccc(O)cc3)cc2)[C@]12C(=O)Nc1ccccc12 , state whether its z-score is greater than or equal to -0.2.
Result: T
